test system: OVCAR-5; experiment: NCI tumour cell line growth inhibition, 48 h
The source made the active and inactive calls. Cut-off read from the data, not from the text of the source: active = GI50 up to about 1.1 µM and inactive = higher.
Let's look at some compounds and their measured GI50.
endpoint: GI50

1) NC12CC3C4CC5(N)CC3C(C1)C(C5)C4C2 ... > 100 µM (inactive)
2) CNC(=O)N(C1=NCC(C)S1)c1ccc(C)c(C)c1 (stereo not given) ... 15.6 µM (inactive)
3) c1ccc2c(c1)SCCCSCCCS2 ... > 100 µM (inactive)
4) CC(C)c1ccc(/C=C/c2cc(C(=O)NNC(=O)NC3CCCCC3)nc(S)n2)cc1 ... > 100 µM (inactive)
5) CCOC(=O)c1cc([N+](=O)[O-])cc([N+](=O)[O-])c1Sc1[nH]cnc2ncnc1-2 ... 9.71 µM (inactive)
6) CC(C)CCNC(=O)c1ccc(CNC(=O)/C=C/c2ccc(-c3ccccc3[N+](=O)[O-])o2)cc1 ... 81.8 µM (inactive)
7) C=C(C)[C@@]1(O)O[C@H]2C[C@@]3(C)OC(=CC3=O)/C(C)=C\[C@@H]3OC(=O)[C@@]1(C)[C@H]32 ... 14 µM (inactive)
8) CN(N=O)C(=O)NC(CCCCNC(=O)OCc1ccccc1)C(=O)OCc1ccccc1 (stereo not given) ... > 100 µM (inactive)
9) O=C(O)Cc1ccc2c(c1O)C(=O)c1c(ccc(CC(=O)O)c1O)C2=O ... > 100 µM (inactive)
10) CC1(N2CCOCC2)CC2C(=[N+]1[O-])CCC/C2=N/O (stereo not given) ... > 100 µM (inactive)
11) CC(=N/NC(=S)N1CCCCC1)/C(C)=N\NC(=S)N1CCCCC1 ... 1.78 µM (inactive)
12) CCOC(=O)C1=C(O)C(=O)c2ccccc2C1=O ... > 100 µM (inactive)
13) C/N=c1/ss/c(=N\C(SC)=[N+](C)C)n1C.[O-][Cl+3]([O-])([O-])[O-] ... > 100 µM (inactive)
14) NS(=O)(=O)c1nnc(NS(=O)(=O)c2ccccc2[N+](=O)[O-])s1 ... > 100 µM (inactive)
15) O=c1[nH]c(=O)n(C2CC(O)C(CO)O2)cc1C#Cc1c(F)c(F)c(F)c(F)c1F (stereo not given) ... > 100 µM (inactive)
16) Cc1cc(NS(=O)(=O)c2ccc(Nc3c4ccccc4nc4c(C(=O)Nc5ccc(S(=O)(=O)N=C(N)N)cc5)cccc34)cc2)no1 ... > 100 µM (inactive)
17) Nc1nn2c(C(Br)Br)cc(C(Br)Br)nc2c1[N+](=O)[O-] ... 1.72 µM (inactive)
18) COc1cc(S(=O)(=O)Nc2nc(-c3ccc(N)cc3)cs2)ccc1Cl ... > 100 µM (inactive)
19) COC(=O)C1(Cc2ccccc2)Cc2ccccc2C1=O (stereo not given) ... > 100 µM (inactive)
20) COC(=O)[C@@H]1C[C@@H]2c3ccccc3N(S(=O)(=O)c3ccccc3)[C@@H]2N1C(=O)OC ... 44 µM (inactive)
